Just for reference, paper PMC9635925 is where these values come from.

Biological target: MRGPRX2-MUT (MRGPRX2 N62S mutation) (Homo sapiens, UniProt Q96LB1, N62S)
Construct: expressed in transfected cells
Sequence (Q96LB1 whole entry N62S): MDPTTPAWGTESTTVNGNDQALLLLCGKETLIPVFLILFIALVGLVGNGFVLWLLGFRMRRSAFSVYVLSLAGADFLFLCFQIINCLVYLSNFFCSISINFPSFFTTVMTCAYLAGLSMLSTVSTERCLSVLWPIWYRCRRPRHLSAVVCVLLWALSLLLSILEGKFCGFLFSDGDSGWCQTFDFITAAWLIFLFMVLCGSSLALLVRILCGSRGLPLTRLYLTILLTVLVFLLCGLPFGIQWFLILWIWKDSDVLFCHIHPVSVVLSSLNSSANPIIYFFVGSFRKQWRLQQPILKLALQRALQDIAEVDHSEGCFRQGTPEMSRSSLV
Assay: Primary HTS, Ca2+ mobilization (fluorescence ratio, B-score) in HEK293-Gα15 cells stably expressing the MRGPRX2 N62S mutation
Assay type: cell-based
Conditions: MRGPRX2-MUT versus MRGPRX2-WT cells, 10 μM, Supplementary Table 2
Structures can show the parent of a compound that is named as a salt.

[
  {
    "COMPOUND": "CC(C)NCC(O)c1ccc(O)c(O)c1 (stereo not drawn) [Isoproterenol Hydrochloride]",
    "ASSAY TARGET": "MRGPRX2-MUT (MRGPRX2 N62S mutation) (Homo sapiens, UniProt Q96LB1, N62S)",
    "Change of B-scores (%)": -100.26
  },
  {
    "COMPOUND": "COc1ccc(CCN(C)CCCC(C#N)(c2ccc(OC)c(OC)c2)C(C)C)cc1OC (stereo not drawn) [Verapamil Hydrochloride]",
    "ASSAY TARGET": "MRGPRX2-MUT (MRGPRX2 N62S mutation) (Homo sapiens, UniProt Q96LB1, N62S)",
    "Change of B-scores (%)": -85.46
  },
  {
    "COMPOUND": "CC(C)(C)NCC(O)c1ccc(O)c(CO)c1 (stereo not drawn) [Salbutamol]",
    "ASSAY TARGET": "MRGPRX2-MUT (MRGPRX2 N62S mutation) (Homo sapiens, UniProt Q96LB1, N62S)",
    "Change of B-scores (%)": -97.38
  },
  {
    "COMPOUND": "CN(C)CCCN1c2ccccc2Sc2ccc(Cl)cc21 [Chlorpromazine]",
    "ASSAY TARGET": "MRGPRX2-MUT (MRGPRX2 N62S mutation) (Homo sapiens, UniProt Q96LB1, N62S)",
    "Change of B-scores (%)": -100.54
  },
  {
    "COMPOUND": "CNCCCN1c2ccccc2CCc2ccccc21 [Desipramine]",
    "ASSAY TARGET": "MRGPRX2-MUT (MRGPRX2 N62S mutation) (Homo sapiens, UniProt Q96LB1, N62S)",
    "Change of B-scores (%)": -91.45
  },
  {
    "COMPOUND": "CN1[C@@H]2CC[C@H]1C[C@@H](OC(=O)C(CO)c1ccccc1)C2 (stereo partly drawn) [Atropine Sulfate Monohydrate]",
    "ASSAY TARGET": "MRGPRX2-MUT (MRGPRX2 N62S mutation) (Homo sapiens, UniProt Q96LB1, N62S)",
    "Change of B-scores (%)": -96.27
  },
  {
    "COMPOUND": "CCn1cc(C(=O)O)c(=O)c2cc(F)c(N3CCNCC3)cc21 [Norfloxacin]",
    "ASSAY TARGET": "MRGPRX2-MUT (MRGPRX2 N62S mutation) (Homo sapiens, UniProt Q96LB1, N62S)",
    "Change of B-scores (%)": -99.81
  },
  {
    "COMPOUND": "O=C(O)c1cn(-c2ccc(F)cc2)c2cc(N3CCNCC3)c(F)cc2c1=O [Sarafloxacin hydrochloride]",
    "ASSAY TARGET": "MRGPRX2-MUT (MRGPRX2 N62S mutation) (Homo sapiens, UniProt Q96LB1, N62S)",
    "Change of B-scores (%)": -100
  },
  {
    "COMPOUND": "CN(C)CCN(Cc1ccc(Cl)cc1)c1ccccn1.Cl [Chloropyramine Hydrochloride]",
    "ASSAY TARGET": "MRGPRX2-MUT (MRGPRX2 N62S mutation) (Homo sapiens, UniProt Q96LB1, N62S)",
    "Change of B-scores (%)": -77.83
  },
  {
    "COMPOUND": "CN(C)CCCN1c2ccccc2CCc2ccccc21 [Imipramine Hydrochloride]",
    "ASSAY TARGET": "MRGPRX2-MUT (MRGPRX2 N62S mutation) (Homo sapiens, UniProt Q96LB1, N62S)",
    "Change of B-scores (%)": -47.47
  },
  {
    "COMPOUND": "CN1[C@@H]2CC[C@H]1CC(OC(=O)[C@H](CO)c1ccccc1)C2.Cl (stereo partly drawn) [Hyoscyamine Hydrochloride]",
    "ASSAY TARGET": "MRGPRX2-MUT (MRGPRX2 N62S mutation) (Homo sapiens, UniProt Q96LB1, N62S)",
    "Change of B-scores (%)": -94.01
  },
  {
    "COMPOUND": "COc1ccc(CCN(C)CCCC(C#N)(c2cc(OC)c(OC)c(OC)c2)C(C)C)cc1OC (stereo not drawn) [Gallopamil]",
    "ASSAY TARGET": "MRGPRX2-MUT (MRGPRX2 N62S mutation) (Homo sapiens, UniProt Q96LB1, N62S)",
    "Change of B-scores (%)": -97.19
  },
  {
    "COMPOUND": "CC(=O)c1ccc2c(c1)N(CCCN(C)C)c1ccccc1S2 [Acepromazine Maleate]",
    "ASSAY TARGET": "MRGPRX2-MUT (MRGPRX2 N62S mutation) (Homo sapiens, UniProt Q96LB1, N62S)",
    "Change of B-scores (%)": -34.19
  },
  {
    "COMPOUND": "CN1CCN(CCCN2c3ccccc3Sc3ccc(C(F)(F)F)cc32)CC1 [Stelazine]",
    "ASSAY TARGET": "MRGPRX2-MUT (MRGPRX2 N62S mutation) (Homo sapiens, UniProt Q96LB1, N62S)",
    "Change of B-scores (%)": -86.07
  },
  {
    "COMPOUND": "CN1[C@@H]2CC[C@H]1C[C@@H](OC(=O)C(CO)c1ccccc1)C2 (stereo partly drawn) [Atropine Sulfate]",
    "ASSAY TARGET": "MRGPRX2-MUT (MRGPRX2 N62S mutation) (Homo sapiens, UniProt Q96LB1, N62S)",
    "Change of B-scores (%)": -100.31
  },
  {
    "COMPOUND": "CC(=O)c1ccc2c(c1)N(CCCN(C)C)c1ccccc1S2 [Acepromazine]",
    "ASSAY TARGET": "MRGPRX2-MUT (MRGPRX2 N62S mutation) (Homo sapiens, UniProt Q96LB1, N62S)",
    "Change of B-scores (%)": 88.18
  },
  {
    "COMPOUND": "CN(C)CCC=C1c2ccccc2CCc2ccccc21 [Amitriptyline hydrochloride]",
    "ASSAY TARGET": "MRGPRX2-MUT (MRGPRX2 N62S mutation) (Homo sapiens, UniProt Q96LB1, N62S)",
    "Change of B-scores (%)": -88.77
  },
  {
    "COMPOUND": "CN(C)CCC=C1c2ccccc2C=Cc2ccccc21 [Cyclobenzaprine Hydrochloride]",
    "ASSAY TARGET": "MRGPRX2-MUT (MRGPRX2 N62S mutation) (Homo sapiens, UniProt Q96LB1, N62S)",
    "Change of B-scores (%)": -92.62
  },
  {
    "COMPOUND": "COc1ccc(CCN(C)CCCC(C#N)(c2ccc(OC)c(OC)c2)C(C)C)cc1OC (stereo not drawn) [Verapamil]",
    "ASSAY TARGET": "MRGPRX2-MUT (MRGPRX2 N62S mutation) (Homo sapiens, UniProt Q96LB1, N62S)",
    "Change of B-scores (%)": -126.44
  },
  {
    "COMPOUND": "CNC[C@H](O)c1ccc(O)c(O)c1 [Epinephrine]",
    "ASSAY TARGET": "MRGPRX2-MUT (MRGPRX2 N62S mutation) (Homo sapiens, UniProt Q96LB1, N62S)",
    "Change of B-scores (%)": -52.73
  },
  {
    "COMPOUND": "CN1CCN(c2cc3c(cc2F)c(=O)c(C(=O)O)cn3-c2ccc(F)cc2)CC1 [Difloxacin Hydrochloride]",
    "ASSAY TARGET": "MRGPRX2-MUT (MRGPRX2 N62S mutation) (Homo sapiens, UniProt Q96LB1, N62S)",
    "Change of B-scores (%)": -103.45
  },
  {
    "COMPOUND": "CN(C)CCCN1c2ccccc2Sc2ccc(C(F)(F)F)cc21 [Triflupromazine Hydrochloride]",
    "ASSAY TARGET": "MRGPRX2-MUT (MRGPRX2 N62S mutation) (Homo sapiens, UniProt Q96LB1, N62S)",
    "Change of B-scores (%)": -90.15
  },
  {
    "COMPOUND": "CN(C)CCC(c1ccc(Br)cc1)c1ccccn1 (stereo not drawn) [Brompheniramine Maleate]",
    "ASSAY TARGET": "MRGPRX2-MUT (MRGPRX2 N62S mutation) (Homo sapiens, UniProt Q96LB1, N62S)",
    "Change of B-scores (%)": -97.07
  },
  {
    "COMPOUND": "O=C(O)c1cn(C2CC2)c2cc(N3CCNCC3)c(F)cc2c1=O [Ciprofloxacin]",
    "ASSAY TARGET": "MRGPRX2-MUT (MRGPRX2 N62S mutation) (Homo sapiens, UniProt Q96LB1, N62S)",
    "Change of B-scores (%)": -74
  },
  {
    "COMPOUND": "CNCCCN1c2ccccc2CCc2ccccc21 [Desipramine Hydrochloride]",
    "ASSAY TARGET": "MRGPRX2-MUT (MRGPRX2 N62S mutation) (Homo sapiens, UniProt Q96LB1, N62S)",
    "Change of B-scores (%)": -139.62
  },
  {
    "COMPOUND": "Cc1ccc(NC(=O)c2ccc(CN3CCN(C)CC3)cc2)cc1Nc1nc(-c2cccnc2)cs1 [Masitinib]",
    "ASSAY TARGET": "MRGPRX2-MUT (MRGPRX2 N62S mutation) (Homo sapiens, UniProt Q96LB1, N62S)",
    "Change of B-scores (%)": -86.2
  },
  {
    "COMPOUND": "CN(C)CCOC(c1ccccc1)c1ccccc1 [Diphenhydramine Hydrochloride]",
    "ASSAY TARGET": "MRGPRX2-MUT (MRGPRX2 N62S mutation) (Homo sapiens, UniProt Q96LB1, N62S)",
    "Change of B-scores (%)": -93.55
  },
  {
    "COMPOUND": "CN(C)CCCN1c2ccccc2CCc2ccc(Cl)cc21 [Clomipramine Hydrochloride]",
    "ASSAY TARGET": "MRGPRX2-MUT (MRGPRX2 N62S mutation) (Homo sapiens, UniProt Q96LB1, N62S)",
    "Change of B-scores (%)": -92.83
  },
  {
    "COMPOUND": "CC(Cc1ccc(O)cc1)NCC(O)c1cc(O)cc(O)c1 (stereo not drawn) [Fenoterol]",
    "ASSAY TARGET": "MRGPRX2-MUT (MRGPRX2 N62S mutation) (Homo sapiens, UniProt Q96LB1, N62S)",
    "Change of B-scores (%)": -41.33
  },
  {
    "COMPOUND": "CN(C)CCC=C1c2ccccc2COc2ccccc21 [Doxepin Hydrochloride]",
    "ASSAY TARGET": "MRGPRX2-MUT (MRGPRX2 N62S mutation) (Homo sapiens, UniProt Q96LB1, N62S)",
    "Change of B-scores (%)": -85.71
  },
  {
    "COMPOUND": "CN(C)CCC(c1ccc(Br)cc1)c1ccccn1 (stereo not drawn) [Brompheniramine]",
    "ASSAY TARGET": "MRGPRX2-MUT (MRGPRX2 N62S mutation) (Homo sapiens, UniProt Q96LB1, N62S)",
    "Change of B-scores (%)": -96.48
  },
  {
    "COMPOUND": "COc1ccc(CN(CCN(C)C)c2ccccn2)cc1 [Pyrilamine]",
    "ASSAY TARGET": "MRGPRX2-MUT (MRGPRX2 N62S mutation) (Homo sapiens, UniProt Q96LB1, N62S)",
    "Change of B-scores (%)": -98.24
  },
  {
    "COMPOUND": "CC(C)NCC(O)c1cc(O)cc(O)c1 (stereo not drawn) [Metaproterenol]",
    "ASSAY TARGET": "MRGPRX2-MUT (MRGPRX2 N62S mutation) (Homo sapiens, UniProt Q96LB1, N62S)",
    "Change of B-scores (%)": -88.28
  },
  {
    "COMPOUND": "CN1[C@@H]2CC[C@H]1C[C@@H](OC(=O)C(CO)c1ccccc1)C2 (stereo partly drawn) [Atropine]",
    "ASSAY TARGET": "MRGPRX2-MUT (MRGPRX2 N62S mutation) (Homo sapiens, UniProt Q96LB1, N62S)",
    "Change of B-scores (%)": -105.08
  },
  {
    "COMPOUND": "CN(C)CC[C@@H](c1ccc(Cl)cc1)c1ccccn1 [Dexchlorpheniramine Maleate]",
    "ASSAY TARGET": "MRGPRX2-MUT (MRGPRX2 N62S mutation) (Homo sapiens, UniProt Q96LB1, N62S)",
    "Change of B-scores (%)": -97.76
  },
  {
    "COMPOUND": "CN(C)CCCN1c2ccccc2Sc2ccc(Cl)cc21 [Chlorpromazine Hydrochloride]",
    "ASSAY TARGET": "MRGPRX2-MUT (MRGPRX2 N62S mutation) (Homo sapiens, UniProt Q96LB1, N62S)",
    "Change of B-scores (%)": -66.27
  }
]
